Tested on: MALME-3M melanoma
Experiment: NCI tumour cell line growth inhibition, 48 h
Reported TGI values are given for each entry in this list.

# compound, TGI
records = [
    ("COc1cc2cnc3c(c2cc1OC)Cc1cc2c(cc1-3)OCO2", "74.9 µM"),
    ("CCOC(=O)CC[C@@H](NC(=O)c1ccc(NCc2ccc3nc(OC)c(OC)nc3c2)cc1)C(=O)OCC", "39 µM"),
    ("N#Cc1nc(Cc2ccccc2)oc1N", "> 100 µM"),
    ("O=C(Nc1ccc2oc(=O)c(C(=O)O)cc2c1)Oc1ccccc1", "> 100 µM"),
    ("Cc1ccc(C(=O)N/N=C/c2cccc(Oc3ccccc3)c2)cn1", "> 100 µM"),
    ("CCOC(=O)C1(Cc2ccccc2)CCN(C(=O)c2ccccc2)C2C1C2(Cl)Cl (stereo unspecified)", "51.5 µM"),
    ("Cc1c(C(=O)CC(=O)C(=O)Nc2cccc(C(F)(F)F)c2)[n+](=O)c2ccccc2n1[O-]", "13.3 µM"),
    ("COc1ccc2c(-c3ccc(O)cc3)c(Oc3ccccc3)c(=O)oc2c1", "> 86.3 µM"),
    ("COc1cc(-c2cn(-c3ccc(Cl)cc3)c(=O)[nH]2)cc(OC)c1OC", "> 100 µM"),
    ("C/C=C/[C@@H]1O[C@H](CC#C[Si](C)(C)C)[C@@]2(C=O)C(C)=CC[C@H](C(C)C)[C@@H]12", "37.2 µM"),
    ("O=C(c1ccc(NCN2C(=O)CCC2=O)cc1)c1ccc(NCN2C(=O)CCC2=O)cc1", "> 100 µM"),
    ("C=CCOc1ccc(C2c3c([nH][nH]c3=O)CC(C)(O)C2C(=O)OC)cc1OC (stereo unspecified)", "> 100 µM"),
    ("CC(C)(N=NC(C)(C)C1=NCCN1)C1=NCCN1", "> 100 µM"),
    ("O=C1CNc2cc(N3CCN(c4cccc(C(F)(F)F)c4)CC3)ccc2N1", "69.9 µM"),
    ("CC(=O)O/C(=C(/C#N)C(=O)O)C1C(C(=O)O)C(c2ccccc2[N+](=O)[O-])C=C(c2ccco2)N1c1ccncc1 (stereo unspecified)", "23 µM"),
    ("Fc1ccc(-c2nnc3sc(-c4cccc(Cl)c4)nn23)cc1Cl", "> 100 µM"),
    ("CCOC(=O)C#Cc1ccc(C#CC(=O)OCC)cc1", "21.3 µM"),
    ("CC(=O)OC[C@@H]1[C@H]2CC(=O)O[C@H]2C[C@H]1OC(C)=O", "> 100 µM"),
    ("Cc1ccc(C2=Nc3ccccc3NC(=O)C2)cc1", "> 100 µM"),
    ("CCOC(=O)/C=C/[C@H](O[Si](c1ccccc1)(c1ccccc1)c1ccccc1)C(C)(C)C", "> 31.6 µM"),
    ("Cc1[nH]n(-c2nc(O)c(C)c(=O)[nH]2)c(=O)c1CCO", "> 100 µM"),
]

====

As a worked illustration, we turn to GI50 data collected for NCI-H460 lung.

# smiles repr, measured on, GI50
measured = [
    ("COc1cc(-c2cc(-c3nc4ccccc4[nH]3)[nH]n2)cc(OC)c1OC", "NCI-H460 lung", "3.64 µM"),
    ("CN(/N=N/c1nc(OCc2ccccc2)c2[nH]cnc2n1)C(=O)N(C)/N=N/c1nc(OCc2ccccc2)c2[nH]cnc2n1", "NCI-H460 lung", "26.1 µM"),
    ("COc1ccc(C(=O)c2cc(OC)c(OC)c(OC)c2)cc1O", "NCI-H460 lung", "0.0373 µM"),
    ("Cc1nn2c(/C=C3/C(=O)Nc4ccccc43)c(-c3ccc(Cl)cc3)nc2s1", "NCI-H460 lung", "22.1 µM"),
    ("CCS(=O)(=O)c1ccc(OC)c(Nc2nccc(N(C)c3ccc4c(C)[nH]nc4c3)n2)c1", "NCI-H460 lung", "8.67 µM"),
    ("O=C(CNC(=O)c1cccc2ccccc12)Nc1ccccc1Oc1ccccc1", "NCI-H460 lung", "0.333 µM"),
    ("CN(C)CC#Cc1cccc(C(=O)c2cnn(-c3ccc(F)cc3)c2N)c1", "NCI-H460 lung", "> 25 µM"),
    ("COc1cc2cnc3c(c2cc1OC)Cc1cc2c(cc1-3)OCO2", "NCI-H460 lung", "< 0.01 µM"),
    ("CN1CCN(Cc2ccc(NC(=O)c3[nH]ncc3Nc3ncnc4c3CCC4)cc2)CC1", "NCI-H460 lung", "1.87 µM"),
    ("CO/N=C1/NC(=O)/C(=C/c2ccc3ncccc3c2)S1", "NCI-H460 lung", "9.08 µM"),
    ("Cc1cc(-c2nc3ccc(O)cc3s2)ccc1N", "NCI-H460 lung", "38.9 µM"),
    ("N#CC(C#N)=CN1CCN(C(=O)c2ccccc2)C1=S", "NCI-H460 lung", "20 µM"),
    ("Cc1ccc(NS(=O)(=O)c2cc(C)ccc2C)cc1", "NCI-H460 lung", "3.4 µM"),
    ("Cc1nn2c(/C=C3/C(=O)Nc4ccc(Cl)cc43)c(-c3ccccc3)nc2s1", "NCI-H460 lung", "3.18 µM"),
    ("CCc1nc2ccc(Cc3ccc(C(=O)NO)cc3)cc2c(=O)n1CCc1ccccc1", "NCI-H460 lung", "0.52 µM"),
]

====

System: SK-MEL-2 melanoma
Experiment: NCI tumour cell line growth inhibition, 48 h

# molecule, value operator, TGI / µM
data = [
    ("CC1(C)SC2C(NC(=O)Cc3ccccc3)C(=O)N2C1C(=O)O (stereo not drawn)", ">", 100),
    ("Nc1ccccc1Sc1ccc(Cl)cc1", "=", 87.8),
    ("O=C(COC(=O)c1ccccc1)c1ccc(Br)cc1", "=", 28.2),
    ("Cc1cc2c(c(C#N)c1C)NC(=O)C(CC(=O)O)C2=O (stereo not drawn)", ">", 100),
    ("CNS(=O)(=O)NN(C)S(=O)(=O)c1ccc(Br)cc1", ">", 100),
    ("O=[N+]([O-])C(=C/C1CCCCC1)/C(=C\\C1CCCCC1)[N+](=O)[O-]", "=", 37.8),
    ("N#Cc1nc(Cc2ccccc2)oc1N", ">", 100),
    ("CC(=O)NC1CCC(NC(=O)OC(C)(C)C)C(NC(=O)OC(C)(C)C)C1 (stereo not drawn)", ">", 100),
    ("c1cncc(C(Nc2cccc3cccnc23)Nc2cccc3cccnc23)c1", ">", 100),
    ("O=C(N/N=C/c1ccc(O)cc1O)c1ccc(Nc2ccnc(C(F)(F)F)c2)cc1", ">", 100),
    ("O=C(Nc1ccc(Nc2ccncc2)cc1)c1ccc(Nc2ccnc3ccc([N+](=O)[O-])cc23)cc1", ">", 100),
    ("CC1(C)OC[C@@]2([C@@H]3CC[C@@H](C3)C2(C)C)N1O", ">", 100),
    ("O=C(O)c1cc2c(cc1S(=O)(=O)O)C1C(C3C2C2(Cl)C(Cl)=C(Cl)C3(Cl)C2(Cl)Cl)C2(Cl)C(Cl)=C(Cl)C1(Cl)C2(Cl)Cl (stereo not drawn)", "=", 73.4),
    ("CCCN(CCC)C(=O)Cc1c2n(c3ccccc13)Cc1ccccc1-2", ">", 100),
    ("O=C(c1ccc(Cl)cc1)N(C(=S)N1CCN(c2ccccc2)CC1)c1ccccc1", ">", 100),
    ("Cc1ccc(C2=Nc3ccccc3NC(=O)C2)cc1", ">", 100),
    ("Cc1c(C(=O)CC(=O)C(=O)Nc2cccc(C(F)(F)F)c2)[n+](=O)c2ccccc2n1[O-]", "=", 18.5),
    ("Cn1c2c(c3ccccc31)CC(=O)N1CCCCC1C21OCCO1 (stereo not drawn)", ">", 100),
    ("C#CC[C@H](c1nc2cc(Cl)ccc2c(=O)n1Nc1ccccc1)N(CCCN)C(=O)c1cccc(Cl)c1F", "=", 1.29),
    ("COc1cccc2c1C(=O)c1ccc3cc(CO)cc(O)c3c1C2=O", "=", 2.99),
    ("c1ccc2c(Cc3c[nH]c4ccccc34)c[nH]c2c1", "=", 52.6),
    ("NNC(=O)CCCCCCCC(=O)O", ">", 100),
    ("CC[O-].CC[O-].O=Nc1ccc2cc([O-])ccc2c1.O=Nc1ccc2cc([O-])ccc2c1.[Ti+4]", "=", 4.75),
    ("COc1ccc(/C=C2\\CNC/C(=C\\c3ccc(OC)cc3)C2=O)cc1", ">", 100),
    ("O=S(=O)(NC(c1ccccc1)(c1cc2ccccc2[nH]1)c1cc2ccccc2n1S(=O)(=O)c1ccccc1)c1ccccc1 (stereo not drawn)", ">", 100),
    ("C=C1C(=O)O[C@@H]2C[C@@H](C)[C@@H]3[C@@H](OC4OC(COC(C)=O)C(O)C(O)C4O)CC(=O)[C@@]3(C)C[C@H]12 (stereo partly drawn)", "=", 20.7),
    ("O=C(/C(Cl)=C/c1ccccc1)c1ccccc1", "=", 28.6),
    ("CN(C)CCCn1c2c3ccccc3ccc2c2oc(=O)c3ccccc3c21", "=", 21.1),
    ("C=C1CC(CNc2cc(Cl)nc(N)n2)C1", ">", 100),
    ("O=S(=O)(O)c1ccc(N=Nc2ccc(N=Nc3ccc(/C=C/c4ccc(N=[N+]([O-])c5ccc(/C=C/c6ccc(N=Nc7ccc(N=Nc8ccc(S(=O)(=O)O)cc8)c8ccccc78)cc6S(=O)(=O)O)c(S(=O)(=O)O)c5)cc4S(=O)(=O)O)c(S(=O)(=O)O)c3)c3ccccc23)cc1", ">", 100),
    ("Cc1ccc(NC2=C(Sc3ccc(Cl)cc3)C(=O)N(Cc3ccccc3)C2=O)cc1Cl", "=", 33.3),
    ("Cc1cc(S(=O)(=O)NC#N)c(S/C(=N\\Nc2ccc([N+](=O)[O-])cc2)c2ccccc2)cc1Cl", "=", 34),
    ("c1ccc2[nH]c(-c3ccc(OCCCCCOc4ccc(-c5nc6ccccc6[nH]5)cc4)cc3)nc2c1", "=", 12.7),
    ("O=C1CNc2cc(N3CCN(c4cccc(C(F)(F)F)c4)CC3)ccc2N1", ">", 100),
    ("Cc1nc(NC(=S)Nc2ccc(F)cc2)sc1C(=O)NNC(=S)Nc1ccc(F)cc1", "=", 60.3),
    ("O=c1[nH]nc2c3c(cccc13)NC(CN1Cc3ccccc3C1)=N2", ">", 100),
    ("CC1=CC[C@H](C)C(C)(C)C1/C=C/C(C)=C/CC[C@@]1(CO)[C@H](CCCO)/C(=C(/C)C=O)CC[C@]1(C)O (stereo partly drawn)", "=", 29.5),
    ("O=C(N/N=C/c1cc(Br)cc(Br)c1[O-])c1ccccc1O.O=C(N/N=C/c1cc(Br)cc(Br)c1[O-])c1ccccc1O.[Mn+2]", "=", 22.3),
]
